Attribute: GI50
- System: MCF-7 cells
- protocol_summary: MCF-7 GI50 determination (crystal violet growth inhibition)
- Format: cell-based, human
- test_parameters: Homo sapiens, MCF7, 96 h; MCF-7 cells, 4 days of treatment, crystal violet; read-out: MCF-7 Cells GI50

>  <compound>
CC[C@]1(O)C[C@H]2CN(CCc3c([nH]c4ccc(S)cc34)[C@@](C(=O)OC)(c3cc4c(cc3OC)N(C)[C@H]3[C@@](O)(C(=O)OC)[C@H](OC(C)=O)[C@]5(CC)C=CCN6CC[C@]43[C@@H]65)C2)C1

>  <unit_of_measurement>
nM

>  <limit_sign>
=

>  <GI50>
30

$$$$
>  <compound>
CC[C@]1(O)C[C@H]2CN(CCc3c([nH]c4ccc(SCCCN5CCCCC5)cc34)[C@@](C(=O)OC)(c3cc4c(cc3OC)N(C)[C@H]3[C@@](O)(C(=O)OC)[C@H](OC(C)=O)[C@]5(CC)C=CCN6CC[C@]43[C@@H]65)C2)C1

>  <unit_of_measurement>
nM

>  <limit_sign>
=

>  <GI50>
40

$$$$
>  <compound>
CC[C@]1(O)C[C@H]2CN(CCc3c([nH]c4ccc(CO)cc34)[C@@](C(=O)OC)(c3cc4c(cc3OC)N(C)[C@H]3[C@@](O)(C(=O)OC)[C@H](OC(C)=O)[C@]5(CC)C=CCN6CC[C@]43[C@@H]65)C2)C1 [Example 63, 12′-(hydroxymethyl) vinblastine]

>  <unit_of_measurement>
nM

>  <limit_sign>
=

>  <GI50>
60

$$$$
>  <compound>
CC[C@]1(O)C[C@H]2CN(CCc3c([nH]c4ccc(CNC(C)C)cc34)[C@@](C(=O)OC)(c3cc4c(cc3OC)N(C)[C@H]3[C@@](O)(C(=O)OC)[C@H](OC(C)=O)[C@]5(CC)C=CCN6CC[C@]43[C@@H]65)C2)C1

>  <unit_of_measurement>
nM

>  <limit_sign>
>

>  <GI50>
1000

$$$$
